Below: a set of entries, each annotated with reported concentration at 0.25 h.
- ASSAY EXPLANATION: Concentration in blood and recovery rate in urine after oral administration (bioassay)
- Type: in vivo, ddY male mice
- MEASUREMENT CONDITIONS: mouse, blood, 40 mg/kg orally, mice, bioassay with S. lutea PC 11001, Example 26 quantified as its non-ester form (Example 25), read-out: Concentration in blood 0.25 hr later
- Experimental: (3) Concentration in blood and recovery rate in urine ddY male mice of 4 weeks old 40 mg/kg of the test compound was orally administered to each mouse, and the change with time of the concentration in blood and the recovery rate in urine for from 0 to 6 hours were measured. The quantitative analysis was conducted by a bioassay using S. lutea PC 11001 as the test microorganism. […]

{"CHEM SMILES": "C=C(C)C1=C(C(=O)O)N2C(=O)[C@H]([C@@H](C)O)[C@H]2[C@H]1C", "concentration at 0.25 h / ng/mL": 4100}
{"CHEM SMILES": "C=C(C)C1=C(C(=O)OCOC(=O)C(C)(C)C)N2C(=O)[C@H]([C@@H](C)O)[C@H]2[C@H]1C", "concentration at 0.25 h / ng/mL": 44900}

* * *

- ASSAY EXPLANATION: Concentration in blood and recovery rate in urine after oral administration (bioassay)
- Format: in vivo, ddY male mice
- MEASUREMENT CONDITIONS: mouse, urine, 40 mg/kg orally, mice, 0-6 hrs, bioassay with S. lutea PC 11001, Example 26 quantified as its non-ester form (Example 25)
PARAMETER: dose excreted at 6 h (%)

{"COMPOUND": "C=C(C)C1=C(C(=O)O)N2C(=O)[C@H]([C@@H](C)O)[C@H]2[C@H]1C [Example 25]", "PARAMETER": "dose excreted at 6 h", "MEASURED NUMBER": 1.8}

* * *

- ASSAY EXPLANATION: Concentration in blood and recovery rate in urine after oral administration (bioassay)
- Format: in vivo, ddY male mice
- MEASUREMENT CONDITIONS: mouse, blood, 40 mg/kg orally, mice, bioassay with S. lutea PC 11001, Example 26 quantified as its non-ester form (Example 25), read-out: Concentration in blood 1 hr later

{"COMPOUND": "C=C(C)C1=C(C(=O)O)N2C(=O)[C@H]([C@@H](C)O)[C@H]2[C@H]1C [Example 25]", "concentration at 1 h": "1600 ng/mL"}

* * *

Below: a set of entries, each annotated with reported concentration at 0.5 h.
- ASSAY EXPLANATION: Concentration in blood and recovery rate in urine after oral administration (bioassay)
- Assay type: in vivo, ddY male mice
- MEASUREMENT CONDITIONS: mouse, blood, 40 mg/kg orally, mice, bioassay with S. lutea PC 11001, Example 26 quantified as its non-ester form (Example 25), read-out: Concentration in blood 0.5 hr later

{"CHEM SMILES": "C=C(C)C1=C(C(=O)OCOC(=O)C(C)(C)C)N2C(=O)[C@H]([C@@H](C)O)[C@H]2[C@H]1C", "concentration at 0.5 h": "29100 ng/mL"}
{"CHEM SMILES": "C=C(C)C1=C(C(=O)O)N2C(=O)[C@H]([C@@H](C)O)[C@H]2[C@H]1C", "concentration at 0.5 h": "2900 ng/mL"}
